# Test system: PKC mediated IL-2 production in human primary T cells
# test: IL-2 ELISA, human primary T cell, anti CD3+CD28+ (whole cell functional assay for PKC mediated IL-2 production)
# Type: cell-based
# condition.description: 24 h, human primary T cells stimulated with anti-CD3 + anti-CD28, IL-2 by ELISA, read-out: IC50 for blocking IL-2 production
pIC50: −log10 of the molar value.
pIC50 reference

compound | pIC50
COc1cnc(Nc2cc(-n3cnnn3)c(C3CC3)cc2F)nc1NC[C@@H]1CCCN2CCCC[C@H]12 | > 4.52
Cn1nnn(-c2cc(Nc3ncc(C#N)c(NC[C@@H]4CCCN5CCCC[C@H]45)n3)c(F)cc2OCC(O)CO)c1=O (stereo partly drawn) | > 4.52
O=C1COc2cc(Nc3ncc(F)c(NC[C@@H]4CCCN5CCCC[C@H]45)n3)ccc2N1CC1CC1 | > 4.52

Taken from patent US9913843B2.
